Data credit: patent US20030068675

- target: ZFP SBS#799 (synthetic)
- Sequence (chain, as listed by the source): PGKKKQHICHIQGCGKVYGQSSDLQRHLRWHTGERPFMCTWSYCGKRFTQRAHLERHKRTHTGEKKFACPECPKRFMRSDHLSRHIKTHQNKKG
- protocol text: EMSA
- test parameters: tags: MBP fusion
observable: Kd (nM)
The reply should be a number in nM, with the unit left off.

[in] For the binder shown here, GGGGGAGCTG (dsDNA) DNA 1: GGGGGAGCTG DNA 2: CAGCTCCCCC , give the reported Kd.
[out] 1.85
